Assayed target: 3-oxo-5-alpha-steroid 4-dehydrogenase 2 (Homo sapiens) (UniProt P31213)
Sequence (whole entry): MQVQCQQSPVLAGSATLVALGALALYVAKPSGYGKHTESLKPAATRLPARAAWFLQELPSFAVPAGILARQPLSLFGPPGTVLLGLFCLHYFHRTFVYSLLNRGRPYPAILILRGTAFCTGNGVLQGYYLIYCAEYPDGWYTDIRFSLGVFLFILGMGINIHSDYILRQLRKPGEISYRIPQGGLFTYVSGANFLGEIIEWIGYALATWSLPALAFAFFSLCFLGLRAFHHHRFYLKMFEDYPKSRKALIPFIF
Method notes: Compound was tested for the inhibition of Steroid 5-alpha-reductase type 2 of human prostates at a concentration of 10e-6 M
Format: tissue-based
Measurement context: Prostate gland
Recorded metric: inhibition (%)
Number only, in %; omit the unit.

[Q] Give a short answer stating reported inhibition for CC(C)N(C(=O)Cc1ccc(-c2ccc(C(=O)O)cc2)cc1)C(C)C .
[A] 37

###

Assayed target: 3-oxo-5-alpha-steroid 4-dehydrogenase 2 (Homo sapiens)
Method notes: Compound was tested for the inhibition of Steroid 5-alpha-reductase type 2 of human prostates
Format: tissue-based, Prostate gland
Recorded metric: IC50 (nM)
Number only, in nM; omit the unit.

> print(dat)
                           structure.smiles  test.result
1  CC(C)N(C(=O)COc1ccc(-c2ccc(C(=O)O)cc2Cl)cc1)C(C)C          870

For the next question, use this compound.
[Q] Give a short answer stating reported IC50 for CC(C)c1cc(-c2ccc(C(=O)O)cc2)cc(C(C)C)c1OCC(=O)N(C(C)C)C(C)C .
[A] 71

###

Assayed target: 3-oxo-5-alpha-steroid 4-dehydrogenase 2 (Homo sapiens, UniProt P31213)
Method notes: Compound was tested for the inhibition of Steroid 5-alpha-reductase type 2 of human prostates
Type: tissue-based, Prostate gland
Recorded metric: IC50

The examples below pair each entry with its known result.
> print(dat)
                           structure.smiles  recorded.metric  test.result
1  CC(C)N(C(=O)COc1cc(Cl)c(-c2ccc(C(=O)O)cc2)c(Cl)c1)C(C)C             IC50      > 10 µM
2  Cc1cc(C(=O)O)cc(C)c1-c1ccc(OCC(=O)N(C(C)C)C(C)C)cc1             IC50      > 10 µM

For the next question, use this compound.
[Q] Give a short answer stating reported IC50 for CC(C)N(C(=O)COc1ccc(-c2c(F)cc(C(=O)O)cc2F)cc1)C(C)C .
[A] > 10 µM

###

Assayed target: UniProtKB P31213
Method notes: Compound was tested for the inhibition of Steroid 5-alpha-reductase type 2 of human prostates at a concentration of 10e-6 M
Format: tissue-based
Measurement context: Prostate gland
Recorded metric: inhibition

The examples below pair each entry with its known result.
> print(dat)
                                   compound  test.result
1  CC(C(=O)N(C(C)C)C(C)C)c1ccc(-c2ccc(C(=O)O)cc2)cc1 (stereo not drawn)        26.9%
2  CC(C)N(C(=O)c1cc(N)c(-c2ccc(C(=O)O)cc2)c(N)c1)C(C)C           0%
3  CC(C)N(C(=O)c1cc(Br)c(-c2ccc(C(=O)O)cc2)c(Br)c1)C(C)C           0%
4  CC(C)N(C(=O)c1cc(I)c(-c2ccc(C(=O)O)cc2)c(I)c1)C(C)C           0%
5  CC(C)N(C(=O)c1cc([N+](=O)[O-])c(-c2ccc(C(=O)O)cc2)c([N+](=O)[O-])c1)C(C)C           0%
6  CC(C)N(C(=O)c1cc(I)c(-c2ccc(C(=O)O)cc2)c([N+](=O)[O-])c1)C(C)C           0%
7  CC(C)N(C(=O)COc1ccc(-c2ccc(C(=O)O)cc2)cc1)C(C)C        57.5%

[Q] Give a short answer stating reported inhibition for CC(C)N(C(=O)c1ccc(-c2ccc(C(=O)O)cc2)cc1)C(C)C .
[A] 32.5%
